FYI, the data here is from PubChem BioAssay (NCI).

System: ACHN renal
Test: NCI tumour cell line growth inhibition, 48 h
measured_attribute: GI50

# input Requested field: GI50. Item: "COc1cccc2c1C(=N)c1c(O)c3c(c(O)c1C2=O)C[C@@](O)(C(C)=O)C[C@@H]3O[C@H]1C[C@H](N)[C@H](O)[C@H](C)O1"
# output 419 nM

# input Requested field: GI50. Item: "O=C1NC(=S)S/C1=C/c1ccc2c(c1)OCO2"
# output > 100000 nM

# input Requested field: GI50. Item: "O=c1[nH]c2ccccc2cc1-c1nc2ccc(Cl)cc2[nH]1"
# output 2450 nM

# input Requested field: GI50. Item: CC(=O)OC1OC([C@H]2c3cccc(O)c3C(=O)c3c(O)cc(C)cc32)C(O)C(O)C1O (some centres not stated)
# output 72.9 nM

# input Requested field: GI50. Item: "CCN1C(=O)c2ccc3c4c(ccc(c24)C1=O)C(=O)N(CCCNCc1ccccc1OC)C3=O"
# output 553 nM

# input Requested field: GI50. Item: "N/N=C\c1c2ccccc2c(=O)n2c1oc1ccccc12"
# output 16300 nM

# input Requested field: GI50. Item: "Cc1cc(Cl)ccc1OCC(=O)Nc1nc2c(Cl)cccc2s1"
# output 43300 nM

###

Please respond with reported GI50 for every item in the list.
Test system: HT29 colon
Assay: NCI tumour cell line growth inhibition, 48 h

# input Requested field: GI50. Item: "O=c1[nH]c2ccccc2cc1-c1nc2ccc(Cl)cc2[nH]1"
# output 4240 nM

# input Requested field: GI50. Item: "CCN1C(=O)/C(=C/c2c(Cl)[nH]c3cc(C)c(OC)cc23)c2ccccc21"
# output 1550 nM

# input Requested field: GI50. Item: "CCCCCCCCn1ccc2cc(NC(=O)Cn3cc(CN4CCCCCC4)nn3)ccc21"
# output 1730 nM

# input Requested field: GI50. Item: "O=C1NC(=S)S/C1=C/c1ccc2c(c1)OCO2"
# output > 100000 nM

# input Requested field: GI50. Item: COc1ccc2c(c1)OC1=C(C(=O)OC1)C2c1cc(OC)c2c(c1)OCCO2 (stereo not given)
# output 36.6 nM

# input Requested field: GI50. Item: "CCCOC(=O)N[C@H]1CCc2c(Cl)c(OC)c(OC)c(OC)c2-c2ccc(SC)c(=O)cc21"
# output < 10 nM

# input Requested field: GI50. Item: "CS(=O)(=O)CCNCc1coc(-c2ccc3ncnc(Nc4ccc(OCc5ccccc5)cc4)c3c2)c1"
# output 3400 nM

# input Requested field: GI50. Item: "COc1ccc2c(c1)C(=O)CCc1cc(OC)c(OC)c(OC)c1-2"
# output < 10 nM

# input Requested field: GI50. Item: NC(CSC(c1ccccc1)(c1ccccc1)c1ccccc1)C(=O)NCC(=O)O (stereo not given)
# output 22000 nM

# input Requested field: GI50. Item: "CCN1C(=O)c2ccc3c4c(ccc(c24)C1=O)C(=O)N(CCCNCc1ccccc1OC)C3=O"
# output 404 nM

###

Please respond with reported TGI for every item in the list.
Tested on: NCI-H522 lung
Experiment: NCI tumour cell line growth inhibition, 48 h
Hi! Could you send only the number? It should be in µM, unit omitted.

# input Requested field: TGI. Item: C=C1C(=O)OC2/C=C(\C(=O)O)CC/C=C(\C)CC(OC(=O)/C=C(\C)CC)C12 (centres undefined)
# output 32.8

# input Requested field: TGI. Item: "O=c1oc2ccccc2c(Nc2ccc3c(c2)Sc2ccccc2O3)c1[N+](=O)[O-]"
# output 48

# input Requested field: TGI. Item: C=C1c2c(C)nn(-c3ccc(C#CCOC4OC(CO)C(O)C(O)C4O)cc3)c2N(C)C23C[C@H]1C1(C)c4c(C)nn(-c5ccc(C#CCOC6OC(CO)C(O)C(O)C6O)cc5)c4N(C)C(C)(C[C@H]12)C3 (some centres undefined)
# output 3.26

# input Requested field: TGI. Item: "COc1c(=O)cc2cc[nH]c3cc[nH]c1c23"
# output 12.1

###

Tested on: SNB-19 CNS
Assay: NCI tumour cell line growth inhibition, 48 h
measured_attribute: TGI

# input Requested field: TGI. Item: COC1OC(CS(=O)(=O)O)C(O)C(O)C1O (centres undefined)
# output > 100 µM

# input Requested field: TGI. Item: CC1C2CC(C(S(=O)(=O)O)C2=O)C1(C)C (centres undefined)
# output > 100 µM

# input Requested field: TGI. Item: "Nc1ncc(-c2cnn(C3CCNCC3)c2)cc1-c1nc2cc(Cl)ccc2o1"
# output 2.97 µM

# input Requested field: TGI. Item: "CCCCCCCCCCCCCP(=O)(O)O"
# output > 100 µM

###

System: 786-0 renal
Experiment: NCI tumour cell line growth inhibition, 48 h
measured_attribute: TGI

# input Request - read-out TGI | tested on 786-0 renal | compound OC(CNc1ccccn1)c1ccccc1 (stereo not given)
# output > 100 µM

# input Request - read-out TGI | tested on 786-0 renal | compound "CC1(C)[C@@H]2CC[C@]1(C)[C@H](OC(=O)CSC#N)C2"
# output 34.1 µM

# input Request - read-out TGI | tested on 786-0 renal | compound "COc1ccc(Cn2c(=O)c(OC)c(C)c3cc4ccccc4cc32)cc1"
# output > 100 µM

# input Request - read-out TGI | tested on 786-0 renal | compound "CCCCCCCCCC[C@@H](OC(C)=O)[C@@H]1CC[C@@H]([C@@H]2CC[C@@H]([C@@H](O)CC#C/C=C/CCCCCCC[C@@]3(Sc4ccccc4)C[C@H](C)OC3=O)O2)O1"
# output > 10 µM

# input Request - read-out TGI | tested on 786-0 renal | compound NC1=NN(c2ccccc2)C(=O)C1C(=O)CCC(=O)Nc1cccc(Cl)c1 (stereo not given)
# output > 100 µM

###

Tested on: PC-3 prostate
Assay: NCI tumour cell line growth inhibition, 48 h
measured_attribute: TGI

# input Request - read-out TGI | tested on PC-3 prostate | compound "S=C(N/N=C/c1ccccn1)N1CCCCC1"
# output > 100 µM

# input Request - read-out TGI | tested on PC-3 prostate | compound COc1ccc(CC2COc3cc(OC)cc(OC)c3C2=O)cc1 (stereo unspecified)
# output > 100 µM

# input Request - read-out TGI | tested on PC-3 prostate | compound Nc1ncnc2c1ncn2C1C=C(CO)C(O)C1O (stereo unspecified)
# output 60.5 µM

# input Request - read-out TGI | tested on PC-3 prostate | compound "COc1cc(Nc2ncccc2C(=O)Nc2nc3ccc(F)cc3s2)cc(OC)c1OC"
# output > 100 µM

# input Request - read-out TGI | tested on PC-3 prostate | compound "Nc1n[nH]c2cccc(C#Cc3cccc(NC(=O)c4cccc(C(F)(F)F)c4)c3)c12"
# output 14.6 µM

# input Request - read-out TGI | tested on PC-3 prostate | compound "O=C(CSc1nnc(-c2ccccn2)s1)N/N=C/c1ccccc1"
# output > 100 µM

# input Request - read-out TGI | tested on PC-3 prostate | compound O=C1CS(=O)(=O)C(c2cccc(Oc3ccccc3)c2)N1c1ccc(Cl)cc1 (stereo unspecified)
# output 84.5 µM

# input Request - read-out TGI | tested on PC-3 prostate | compound "CC(C)CCNC(=O)c1ccc(CNC(=O)/C=C/c2cccc(Oc3ccccc3)c2)cc1"
# output > 100 µM

# input Request - read-out TGI | tested on PC-3 prostate | compound "O=C(NC1=C(Cl)C(=O)c2ccccc2C1=O)c1ccccc1"
# output > 100 µM

# input Request - read-out TGI | tested on PC-3 prostate | compound "CC1(C)N/C(=C\[N+](=O)[O-])C(C)(C)N1O"
# output > 10 µM

# input Request - read-out TGI | tested on PC-3 prostate | compound "CSc1c(C(=O)Nc2ccccc2)c(N)n(N)c(=O)c1C#N"
# output > 100 µM

# input Request - read-out TGI | tested on PC-3 prostate | compound "Cc1c(-c2ccccc2)cc(O)c2nc3ccccc3n12"
# output > 100 µM

# input Request - read-out TGI | tested on PC-3 prostate | compound "COCCOC(=O)C1=C(O)c2ccccc2S(=O)(=O)N1C"
# output > 100 µM

# input Request - read-out TGI | tested on PC-3 prostate | compound "CC(C)(C)c1cc([N+](=O)[O-])cc([N+](=O)[O-])c1O"
# output > 10 µM

# input Request - read-out TGI | tested on PC-3 prostate | compound O=C1/C(=C/C=C/c2ccccc2)CCC1CNc1ccccc1 (stereo unspecified)
# output > 100 µM

# input Request - read-out TGI | tested on PC-3 prostate | compound "Cc1ccc(C(=O)O)c(/C=C2\Cc3ccc(C)cc3C2=O)c1"
# output > 100 µM

# input Request - read-out TGI | tested on PC-3 prostate | compound "Cc1cc(Cl)ccc1OCC(=O)Nc1nc2c(Cl)cccc2s1"
# output > 100 µM

# input Request - read-out TGI | tested on PC-3 prostate | compound "O=C(O)c1ccc(CN2CCC(CN[C@@H]3C[C@H]3c3ccccc3)CC2)cc1"
# output > 100 µM

# input Request - read-out TGI | tested on PC-3 prostate | compound "Cc1ccc(C(=O)N/N=C(\N=Nc2cccc([N+](=O)[O-])c2)c2ccc(N(CCC#N)CCC#N)cc2C)cc1"
# output > 100 µM

# input Request - read-out TGI | tested on PC-3 prostate | compound C=C(C)C1CC2(C)C(C)CC(O)CC2C(OC(=O)C=C(C)C)C1O (stereo unspecified)
# output > 100 µM

# input Request - read-out TGI | tested on PC-3 prostate | compound N#CSCC(Cl)=CCl (mixture of isomers)
# output > 100 µM
